src = patent US7266458B2

- Tested on: human umbilical vein endothelial cells (HUVEC)
- Experiment: Optimized inflammatory assay combination (IL-1+TNF-α+IFN-γ) with added agents, cell-based ELISA biomap
- Condition label: 10 μM NHGA, 200 YM PDTC, 9 μM PD098059, 125-500 μM ibuprofen; TNF-α+IFN-γ+IL-1, 24 hours
Reported metric: biomap in the optimized assay combination

Compound	Measured result
CC(Cc1ccc(O)c(O)c1)C(C)Cc1ccc(O)c(O)c1 (stereo not shown) [NHGA, nordihydroguaiaretic acid]	altered biomaps
S=C(S)N1CCCC1 [PDTC, pyrrolidine dithiocarbamate]	altered biomaps
COc1cccc(-c2cc(=O)c3ccccc3o2)c1N	altered biomaps
